Quick list: self-cleavage kobs at 160 uM GlcN6P per entry.
B1: glmS ribozyme (parent)
chain: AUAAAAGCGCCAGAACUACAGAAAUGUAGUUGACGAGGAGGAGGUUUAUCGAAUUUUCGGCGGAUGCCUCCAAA

Variants of: B1
TEST METHOD NOTES: self-cleavage kobs at 160 uM GlcN6P; higher = faster cleavage; RNA array
ASSAY SETUP: with glucosamine-6-phosphate
Variants at the floor of the assay were thinned out.

Take a look at these entries with their results.
G35A G43U U45C A53G G59A	< 1e-05 s⁻¹
U46G U55G G60C	< 1e-05 s⁻¹
C10A G35A A39G	< 1e-05 s⁻¹
G7C U49G	< 1e-05 s⁻¹
C10A G38U G40A	< 1e-05 s⁻¹

Please report the recorded self-cleavage kobs at 160 uM GlcN6P for C10A A42U .
< 1e-05 s⁻¹

Please report the recorded self-cleavage kobs at 160 uM GlcN6P for G41A U57C .
< 1e-05 s⁻¹

Please report the recorded self-cleavage kobs at 160 uM GlcN6P for A42U U47C A52C .
< 1e-05 s⁻¹

Please report the recorded self-cleavage kobs at 160 uM GlcN6P for G9A C34G .
< 1e-05 s⁻¹

Please report the recorded self-cleavage kobs at 160 uM GlcN6P for G9C A12C U31C .
< 1e-05 s⁻¹

Please report the recorded self-cleavage kobs at 160 uM GlcN6P for A39G A53C .
0.000658 s⁻¹

Please report the recorded self-cleavage kobs at 160 uM GlcN6P for U46A C61G .
< 1e-05 s⁻¹

Please report the recorded self-cleavage kobs at 160 uM GlcN6P for C8G C16A .
< 1e-05 s⁻¹

Please report the recorded self-cleavage kobs at 160 uM GlcN6P for A15G A33C A64U .
< 1e-05 s⁻¹

Please report the recorded self-cleavage kobs at 160 uM GlcN6P for G13A U30A U31A A42C U46G .
< 1e-05 s⁻¹
